molecules and their reported Dose.FC.CTG
tested on: ENR+CD organoids; assay: Primary screen: ATP (CellTiter-Glo 3D, CTG) cell number/viability, 2.5-D 384-well ENR+CD organoids; details: primary screen; dose 0.08 uM; FC vs plate median
Property name: Dose.FC.CTG (log2 fold change)

INSERT INTO measurements (molecule, units_symbol, test_result) VALUES
  ('C=CCn1c(=O)c2cnc(Nc3ccc(N4CCN(C)CC4)cc3)nc2n1-c1cccc(C(C)(C)O)n1', 'log2 fold change', 0.165),
  ('C[C@]1(O)C[C@@H](c2nc(-c3ccc4ccc(-c5ccccc5)nc4c3)c3c(N)nccn32)C1', 'log2 fold change', '−0.324'),
  ('CC(C)(F)C[C@H](N[C@@H](c1ccc(-c2ccc(S(C)(=O)=O)cc2)cc1)C(F)(F)F)C(=O)NC1(C#N)CC1', 'log2 fold change', 0.119),
  ('Cc1cn(-c2cc(NC(=O)c3ccc(C)c(Nc4nccc(-c5cccnc5)n4)c3)cc(C(F)(F)F)c2)cn1 [Nilotinib (AMN-107), Nilotinib, reference compound]', 'log2 fold change', 0.322),
  ('Nc1cccc2c1C(=O)N(C1CCC(=O)NC1=O)C2=O (centres unmarked) [Pomalidomide]', 'log2 fold change', 0.063),
  ('Nc1nc(CC(=O)Nc2ccc(CCNC[C@H](O)c3ccccc3)cc2)cs1', 'log2 fold change', 0.029),
  ('OC(CNCC(O)C1CCc2cc(F)ccc2O1)C1CCc2cc(F)ccc2O1 (centres unmarked)', 'log2 fold change', 0.388),
  ('C#Cc1cccc(Nc2ncnc3cc(OCCOC)c(OCCO)cc23)c1', 'log2 fold change', 0.106),
  ('Cc1c(Cc2ccc3ccccc3n2)c2cc(F)ccc2n1CC(=O)O', 'log2 fold change', 0.077),
  ('O=C(O)c1ccc(Nc2ncc3c(n2)-c2ccc(Cl)cc2C(c2c(F)cccc2F)=NC3)cc1', 'log2 fold change', 0.026),
  ('CC(C)(C)n1nc(-c2ccc(Cl)cc2)c2c(N)ncnc21', 'log2 fold change', '−0.693'),
  ('Oc1cc(O)cc(/C=C/c2ccc(O)c(O)c2)c1', 'log2 fold change', 0.232),
  ('NC(=O)N1c2ccccc2CC(=O)c2ccccc21 [Oxcarbazepine]', 'log2 fold change', '−0.021'),
  ('Cl.Cl.NC1(c2ccc(-c3nc4ccn5c(=O)[nH]nc5c4cc3-c3ccccc3)cc2)CCC1 [MK-2206 2HCl]', 'log2 fold change', 0.071),
  ('COc1cc(OC)c(NC(=O)Nc2cc(C)on2)cc1Cl', 'log2 fold change', '−0.079'),
  ('CN1C(=O)C(Cc2c[nH]c3ccccc23)NC1=S (centres unmarked)', 'log2 fold change', 0.102),
  ('C/C(=N\NC(=S)N1CCC1)c1ccccn1', 'log2 fold change', 0.132);

====

system: ENR+CD organoids; assay: Primary screen: ATP (CellTiter-Glo 3D, CTG) cell number/viability, 2.5-D 384-well ENR+CD organoids; conditions: primary screen, dose 0.40 uM, FC relative to plate median
Where a name gives a salt, the structure may show the parent alone.
Label rule, in plain words: Dose.FC.CTG of 0.2 log2 fold change and up is T, under 0.2 log2 fold change is F.

INSERT INTO assay_data (compound, class) VALUES
  ('Cc1nnc(C(=O)NC(C)(C)c2nc(C(=O)NCc3ccc(F)cc3)c(O)c(=O)n2C)o1 [Raltegravir (MK-0518)]', 'F'),
  ('CN1CC(=O)N2[C@H](c3ccc4c(c3)OCO4)c3[nH]c4ccccc4c3C[C@@H]2C1=O [Tadalafil]', 'T'),
  ('O=C(/C=C/c1ccccc1)NC(NC(=S)Nc1ccc(Cl)cc1)C(Cl)(Cl)Cl (stereo not shown) [Sal003]', 'F'),
  ('CNC(=O)c1cc(Oc2ccc(NC(=O)Nc3ccc(Cl)c(C(F)(F)F)c3)cc2)ccn1 [Sorafenib]', 'F'),
  ('CCn1c(N)c(C(=O)NC)c(=O)c2ccc(C#C[C@@](C)(O)COC)nc21 [SAR131675]', 'F'),
  ('COc1cc2c(cc1OC)CN(CCc1ccc(NC(=O)c3cc(OC)c(OC)cc3NC(=O)c3cnc4ccccc4c3)cc1)CC2 [Tariquidar]', 'F'),
  ('CCC(=O)NCC[C@@H]1CCc2ccc3c(c21)CCO3 [Ramelteon]', 'F'),
  ('C#CCN[C@@H]1CCc2ccccc21 [Rasagiline Mesylate]', 'F'),
  ('Cc1cc(OCCCS(C)(=O)=O)cc(C)c1-c1cccc(COc2ccc3c(c2)OC[C@H]3CC(=O)O)c1 [TAK-875]', 'F'),
  ('COc1cc(Br)c(Nc2nc(-c3c(C)nc4ncccn34)cs2)c(Br)c1 [PTC-209]', 'F'),
  ('CCCc1nc2c(C)cc(-c3nc4ccccc4n3C)cc2n1Cc1ccc(-c2ccccc2C(=O)O)cc1 [Telmisartan]', 'T'),
  ('CN(C)CCc1c[nH]c2ccc(Cn3cncn3)cc12 [Rizatriptan Benzoate]', 'F'),
  ('COc1cc2c(cc1OC)[C@@H]1Cc3ccc(OC)c(OC)c3CN1CC2 [Rotundine]', 'T');

====

test system: ENR+CD organoids; test: Primary screen: ATP (CellTiter-Glo 3D, CTG) cell number/viability, 2.5-D 384-well ENR+CD organoids; conditions: primary screen; dose 0.40 uM; FC vs plate median;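 note: compounds given at plating and again on day 3 over a 6-day differentiation from ENR+CV stem-cell-enriched precursors, ATP measured on day 6, plate median as control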
Property name: Dose.FC.CTG

INSERT INTO measurements (compound, test_result) VALUES
  ('CC(C)(C)n1nc(-c2ccc(Cl)cc2)c2c(N)ncnc21', '0.130 log2 fold change'),
  ('Cc1sc2c(c1C)C(c1ccc(Cl)cc1)=N[C@@H](CC(=O)Nc1ccc(O)cc1)c1nnc(C)n1-2', '−0.398 log2 fold change'),
  ('Nc1ncnc2c1c(-c1cccc(OCc3ccccc3)c1)cn2C1CC(CN2CCCC2)C1 (centres unmarked)', '0.663 log2 fold change'),
  ('COc1ccc(-c2nc3ccc(C4=NNC(=O)CC4C)cc3[nH]2)cc1 (centres unmarked)', '0.193 log2 fold change'),
  ('CC(=O)c1c(C)c2cnc(Nc3ccc(N4CCNCC4)cn3)nc2n(C2CCCC2)c1=O.Cl [Palbociclib (PD-0332991) HCl]', '−0.350 log2 fold change');

====

system: ENR+CD organoids (ISC to Paneth cell differentiation); test: Primary screen: basal (non-stimulated) lysozyme secretion LYZ.NS, 2.5-D 384-well ENR+CD organoid differentiation; format: cell-based, mouse; conditions: primary screen, standard z score, dose 2.00 uM
Counter-ions that a name gives are not always drawn.
compounds and their reported Z.LYZ.NS
Property name: Z.LYZ.NS

INSERT INTO assay_data (compound, test_result) VALUES
  ('C[C@@H](NCCCc1cccc(C(F)(F)F)c1)c1cccc2ccccc12 [Cinacalcet HCl]', '−0.189'),
  ('c1ccc(CNc2nc(NCc3ccccc3)c3ccccc3n2)cc1 [DBeQ]', '−0.414'),
  ('CN(C)C(=O)[C@H](O)[C@H](Cc1ccccc1)NC(=O)c1cc2cc(Cl)ccc2[nH]1 [CP-91149]', 0.245),
  ('CC(C)(C)NC(=O)[C@H]1CC[C@H]2[C@@H]3CC[C@H]4NC(=O)C=C[C@]4(C)[C@H]3CC[C@]12C [Finasteride, reference compound]', 1.236),
  ('C=C1C[C@@H]2[C@H](CC[C@]3(C)C(=O)CC[C@@H]23)[C@@]2(C)C=CC(=O)C=C12 [Exemestane]', 0.012),
  ('COc1ccc(C[C@@H](C)NC[C@H](O)c2ccc(O)c(NC=O)c2)cc1.COc1ccc(C[C@@H](C)NC[C@H](O)c2ccc(O)c(NC=O)c2)cc1.O=C(O)/C=C/C(=O)O [Formoterol Hemifumarate]', 0.420),
  ('CCCCCCCCc1ccc(CCC(N)(CO)CO)cc1.Cl [Fingolimod (FTY720) HCl]', 0.186),
  ('CCOc1ccccc1-n1c(C(C)N2CCN(C(=O)COc3ccc(Cl)cc3)CC2)nc2ccccc2c1=O (centres unmarked) [Erastin]', 1.367),
  ('NC1(Cc2ccc(Cl)cc2)CCN(c2ncnc3[nH]ccc23)CC1 [CCT128930]', 0.633),
  ('CNC(=O)c1ccc(N2C(=S)N(c3ccc(C#N)c(C(F)(F)F)c3)C(=O)C2(C)C)cc1F [Enzalutamide (MDV3100)]', 0.210),
  ('COc1cc(Nc2ncc(F)c(Nc3ccc4c(n3)N(COP(=O)(O)O)C(=O)C(C)(C)O4)n2)cc(OC)c1OC [Fostamatinib (R788)]', '−0.860'),
  ('COCCCC/C(=N\OCCN)c1ccc(C(F)(F)F)cc1 [Fluvoxamine maleate]', 0.778),
  ('C=C[C@@]1(C)CC(=O)[C@]2(O)[C@@]3(C)[C@@H](O)CCC(C)(C)[C@@H]3[C@H](O)[C@H](OC(C)=O)[C@@]2(C)O1 [Forskolin]', 1.661),
  ('CCOc1nc2cccc(C(=O)O)c2n1Cc1ccc(-c2ccccc2-c2nnn[nH]2)cc1 [Candesartan]', 0.065),
  ('COc1ccccc1OCCNCC(O)COc1cccc2[nH]c3ccccc3c12 (centres unmarked) [Carvedilol]', 0.866),
  ('CC(C)NC[C@@H](C(=O)N1CCN(c2ncnc3c2[C@H](C)C[C@H]3O)CC1)c1ccc(Cl)cc1 [GDC-0068]', '−0.675'),
  ('O=c1[nH]c2ccc(Cl)cc2c(N[C@@H]2CN3CCC2CC3)c1-c1nc2ccccc2[nH]1 [CHIR-124]', '−1.916');

src = patent US20220323406A1
